Reference for the values: PubChem BioAssay

target_system: Epidermal growth factor receptor (Homo sapiens)
protocol_notes: compounds binding epidermal growth factor receptor – biochemical, small-molecule microarray, 635 nm fluorescence, primary screen (AID 1104);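 note: score merges 667 nm emission intensity with spot signal to noise over triplicate slides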
experimental_conditions: EGFR binding, higher = more signal
composite z-score values by entry
endpoint: composite z-score

>  <chemical_string>
COCCOC(=O)N1C(=O)[C@@]2(c3cc(C#CC4(O)CCCCCC4)ccc31)[C@H](c1ccccc1OCCO)N1[C@H](c3ccccc3)[C@H](c3ccccc3)OC(=O)[C@H]1[C@@H]2C(=O)N1CCc2cc(OC)c(OC)cc2C1

>  <target_system>
Epidermal growth factor receptor (Homo sapiens)

>  <test_result>
0.345

$$$$
>  <chemical_string>
CC(C)[Si](C#CCCCC#N)(O[C@H](c1ccccc1)c1cn(Cc2cccc(Cl)c2)nn1)C(C)C

>  <target_system>
Epidermal growth factor receptor (Homo sapiens)

>  <test_result>
0.376

$$$$
>  <chemical_string>
C=CC[C@@]1(C(=O)N2CCCCC2)N=C(c2ccc(OCCCO)cc2)O[C@@H]1c1ccccc1N=[N+]=[N-]

>  <target_system>
Epidermal growth factor receptor (Homo sapiens)

>  <test_result>
0.249

$$$$
>  <chemical_string>
O=C(O)[C@@]1(CCS(=O)(=O)c2ccccc2)N=C(c2ccc(OCCCO)cc2)O[C@H]1c1ccccc1

>  <target_system>
Epidermal growth factor receptor (Homo sapiens)

>  <test_result>
-0.264

$$$$
